B1: Intersectin-1, residues 1156 to 1213; numbered along this chain, Q15811 (parent)
chain: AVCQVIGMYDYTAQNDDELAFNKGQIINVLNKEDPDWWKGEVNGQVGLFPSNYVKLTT

- Variants of: B1
- experiment.summary: abundance fitness (aPCA) (normalised: wild type 0, dead -1); higher = more abundant; growth selection in yeast, the domain comes from the species named
- condition: Homo sapiens
// label = MET if abundance fitness is not less than 0.02, otherwise NOT MET

Asked: Check the entry G7L : does abundance fitness equal or exceed 0.02?
Given back: NOT MET

Asked: Please indicate if the recorded abundance fitness for N15T meets or exceeds 0.02.
Given back: MET

Asked: Is reported abundance fitness greater than or equal to 0.02 here: D16G
Given back: NOT MET

Asked: Could you verify whether the entry K55R shows abundance fitness of no less than 0.02?
Given back: MET

Asked: Could you verify whether the entry V42E shows abundance fitness of no less than 0.02?
Given back: NOT MET

Asked: // inclusive: abundance fitness at least 0.02? input: K32R
Given back: MET

Asked: Hi team, for Q45K , is the recorded abundance fitness at or above 0.02?
Given back: MET

Asked: Determine whether measured abundance fitness meets or exceeds 0.02 for L48N
Given back: NOT MET
